biological target: Tyrosine-protein kinase ABL1 (Homo sapiens, UniProt P00519); assay: Binding affinity to ABL
Sequence (P00519 whole entry): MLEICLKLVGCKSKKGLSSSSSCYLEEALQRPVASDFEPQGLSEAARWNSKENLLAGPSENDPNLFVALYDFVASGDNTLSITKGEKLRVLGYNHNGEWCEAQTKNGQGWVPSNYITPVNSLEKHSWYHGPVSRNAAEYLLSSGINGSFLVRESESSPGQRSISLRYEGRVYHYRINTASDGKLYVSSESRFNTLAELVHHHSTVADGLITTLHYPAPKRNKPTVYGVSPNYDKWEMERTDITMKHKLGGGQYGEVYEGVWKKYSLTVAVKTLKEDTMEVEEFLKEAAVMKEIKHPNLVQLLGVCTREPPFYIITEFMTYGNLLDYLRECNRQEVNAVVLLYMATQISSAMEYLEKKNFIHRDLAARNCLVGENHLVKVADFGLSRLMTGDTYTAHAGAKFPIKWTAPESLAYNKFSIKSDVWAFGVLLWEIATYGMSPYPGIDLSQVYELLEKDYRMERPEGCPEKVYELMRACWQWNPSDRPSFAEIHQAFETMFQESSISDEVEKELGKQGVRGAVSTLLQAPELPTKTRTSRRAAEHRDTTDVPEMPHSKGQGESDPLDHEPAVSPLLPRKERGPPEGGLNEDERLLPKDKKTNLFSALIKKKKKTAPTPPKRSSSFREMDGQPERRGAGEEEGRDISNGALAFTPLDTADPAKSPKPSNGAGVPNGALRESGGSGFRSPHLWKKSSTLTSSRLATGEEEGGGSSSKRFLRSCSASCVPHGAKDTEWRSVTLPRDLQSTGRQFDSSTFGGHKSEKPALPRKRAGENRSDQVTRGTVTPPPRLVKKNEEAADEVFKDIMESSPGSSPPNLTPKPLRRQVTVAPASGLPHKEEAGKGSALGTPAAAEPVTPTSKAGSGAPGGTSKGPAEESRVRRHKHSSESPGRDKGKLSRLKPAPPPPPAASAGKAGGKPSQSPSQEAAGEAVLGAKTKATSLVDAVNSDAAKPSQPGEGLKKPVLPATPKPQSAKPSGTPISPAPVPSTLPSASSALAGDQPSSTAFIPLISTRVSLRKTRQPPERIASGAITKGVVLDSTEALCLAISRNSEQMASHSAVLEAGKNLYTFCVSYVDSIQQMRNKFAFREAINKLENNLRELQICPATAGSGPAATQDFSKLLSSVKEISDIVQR
reported_property: pIC50
// field semantics: pIC50 = negative decimal log of concentration (mol/L)

Entry O=C(N/N=C/c1cc(C(=O)O)c(Nc2ccc(I)cc2F)c(F)c1F)c1ccc(CO)o1 — recorded pIC50 = 6.52

====

# inhibition listing for each entry below
molecular target: Aurora kinase A (Homo sapiens) (UniProt O14965); test: Binding affinity to Aurora A at 10 uM
Sequence (O14965 whole entry): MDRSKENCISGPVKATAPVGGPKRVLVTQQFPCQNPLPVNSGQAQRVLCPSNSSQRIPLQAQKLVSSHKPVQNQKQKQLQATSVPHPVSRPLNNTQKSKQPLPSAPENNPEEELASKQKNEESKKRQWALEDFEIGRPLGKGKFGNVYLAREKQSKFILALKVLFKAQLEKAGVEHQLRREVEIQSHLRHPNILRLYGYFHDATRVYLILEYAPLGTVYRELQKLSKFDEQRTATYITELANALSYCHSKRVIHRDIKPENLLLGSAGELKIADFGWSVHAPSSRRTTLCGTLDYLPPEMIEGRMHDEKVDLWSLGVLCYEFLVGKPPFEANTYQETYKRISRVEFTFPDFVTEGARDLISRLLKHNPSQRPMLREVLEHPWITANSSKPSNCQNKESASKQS
Kindly answer with a numeric value in %, unit omitted.

[[record]]
line_notation = "O=C(NOCCO)c1cc(/C=N/OCCO)c(F)c(F)c1Nc1ccc(I)cc1F"
measured_result = 5

[[record]]
line_notation = "O=C(NOCCO)c1ccc(F)c(F)c1Nc1ccc(I)cc1F"
measured_result = 11

[[record]]
line_notation = "O=C(O)CCCO/N=C/c1cc(C(=O)NOCCO)c(Nc2ccc(I)cc2F)c(F)c1F"
measured_result = 29

[[record]]
line_notation = "O=C(O)c1ccc(CO/N=C/c2cc(C(=O)NOCCO)c(Nc3ccc(I)cc3F)c(F)c2F)o1"
measured_result = 21


Entry COCCCNC(=O)N/N=C/c1cc(C(=O)NOCCO)c(Nc2ccc(I)cc2F)c(F)c1F — recorded inhibition = 0

Entry O=C(NOCCO)c1cc(COCCO)c(F)c(F)c1Nc1ccc(I)cc1F — recorded inhibition = 2
